ASSAY_COMMENT: Dog PK
Assay type: in vivo
STATED_CONDITIONS: dog, plasma; dogs, single PO dose of 6 mg/kg; read-out: oral bioavailability (F)
Where a name gives a salt, the structure may show the parent alone.
PROPERTY_NAME: bioavailability (%)
Kindly provide the numeric value in % only, without the unit symbol.

Challenge: For CC1CN(CC(Cc2ccccc2)C(=O)NCC(=O)O)CCC1(C)c1cccc(C(N)=O)c1 (stereo not shown) [Example C-3, sodium salt, reference compound] , what is its reported bioavailability?
Response given: 11

###

ASSAY_COMMENT: Primate PK
Format: in vivo, monkey
STATED_CONDITIONS: monkey, plasma, po, 1 mg/kg, individual monkeys, PO 1 mg/kg; read-out: Cmax
Structures can show the parent of a compound that is named as a salt.
PROPERTY_NAME: Cmax (ng/mL)
Kindly provide the numeric value in ng/mL only, without the unit symbol.

Challenge: For CC1CN(CC(Cc2ccccc2)C(=O)NCC(=O)O)CCC1(C)c1cccc(C(N)=O)c1 (stereo not shown) [Example C-3, sodium salt, reference compound] , what is its reported Cmax?
Response given: 1.7

###

Measured pKi values are reported for all entries that follow.
STUDY_SYSTEM: cloned human μ opioid receptor (Homo sapiens, UniProt P35372)
Construct: expressed in transfected cells
Sequence (P35372 whole entry): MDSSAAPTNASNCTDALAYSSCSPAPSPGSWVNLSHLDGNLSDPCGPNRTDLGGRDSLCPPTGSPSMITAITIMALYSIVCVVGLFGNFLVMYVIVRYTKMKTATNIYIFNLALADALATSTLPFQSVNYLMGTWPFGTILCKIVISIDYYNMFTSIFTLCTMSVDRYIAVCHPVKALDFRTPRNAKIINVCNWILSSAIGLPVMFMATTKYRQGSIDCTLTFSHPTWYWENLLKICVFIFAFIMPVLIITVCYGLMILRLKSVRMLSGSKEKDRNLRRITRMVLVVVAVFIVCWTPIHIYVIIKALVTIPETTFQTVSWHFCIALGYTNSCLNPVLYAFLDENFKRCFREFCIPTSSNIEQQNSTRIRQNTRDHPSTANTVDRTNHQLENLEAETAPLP
ASSAY_COMMENT: Receptor binding, [3H]diprenorphine displacement, mu opioid receptor
STATED_CONDITIONS: [3H]diprenorphine, cloned human mu opioid receptor; read-out: MOR Ki
Note on units: pKi is unitless, being -log10 of a concentration expressed in mol/L.

{"COMPOUND": "C[C@H]1CN(C[C@@H](Cc2ccccc2)C(=O)NCC(=O)O)CC[C@@]1(C)c1cccc(C(N)=O)c1.O=C(O)C(F)(F)F [Example C-2, reference compound]", "PROPERTY_NAME": "pKi", "MEASUREMENT": 8.59}

Lab note: next compound to report on.
Challenge: For C[C@H]1CN(C[C@H](Cc2ccccc2)C(=O)O)CC[C@@]1(C)c1cccc(C(=O)O)c1 [Example C-1, reference compound] , what is its reported pKi?
Response given: 5.64

###

ASSAY_COMMENT: Dog PK
Assay type: in vivo
STATED_CONDITIONS: dog, in vivo; dogs, single PO dose of 6 mg/kg; read-out: oral bioavailability (F)
PROPERTY_NAME: bioavailability (%)
Kindly provide the numeric value in % only, without the unit symbol.

Challenge: For C[C@H]1CN(C[C@H](Cc2ccccc2)C(=O)[O-])CC[C@@]1(C)c1cccc(C(N)=O)c1.[Li+] [Example 1] , what is its reported bioavailability?
Response given: 30

###

ASSAY_COMMENT: Primate PK
Type: in vivo, monkey
STATED_CONDITIONS: monkey, in vivo; monkeys, single PO dose of 1 mg/kg; read-out: oral bioavailability (F)
PROPERTY_NAME: bioavailability
Just the number plus its unit, please.

Challenge: For `C[C@H]1CN(C[C@H](Cc2ccccc2)C(=O)[O-])CC[C@@]1(C)c1cccc(C(N)=O)c1.[Li+]` , what is its reported bioavailability?
Response given: 10%

###

STUDY_SYSTEM: cloned human μ opioid receptor (Homo sapiens, UniProt P35372)
Construct: expressed in transfected cells
ASSAY_COMMENT: Receptor binding, [3H]diprenorphine displacement, mu opioid receptor
STATED_CONDITIONS: ratio of DOR Ki to MOR Ki
Where a name gives a salt, the structure may show the parent alone.
Respond with YES for DOR/MOR Ratio values of 30 and above, NO for values below.

As a guide, the following entries are already answered.
{"MOLECULE": "C[C@H]1CN(C[C@H](Cc2ccccc2)C(=O)O)CC[C@@]1(C)c1cccc(C(N)=O)c1", "GROUP": "YES"}
{"MOLECULE": "CC1CN(CC(Cc2ccccc2)C(=O)NCC(=O)O)CCC1(C)c1cccc(C(N)=O)c1 (stereo not drawn) [Example C-3, sodium salt, reference compound]", "GROUP": "YES"}
{"MOLECULE": "C[C@H]1CN(C[C@@H](Cc2ccccc2)C(=O)NCC(=O)O)CC[C@@]1(C)c1cccc(C(N)=O)c1.O=C(O)C(F)(F)F [Example C-2, reference compound]", "GROUP": "YES"}
{"MOLECULE": "C[C@H]1CN(C[C@H](Cc2ccccc2)C(=O)O)CC[C@@]1(C)c1cccc(C(N)=O)c1.O=C(O)C(F)(F)F", "GROUP": "YES"}

Challenge: Does DOR/MOR Ratio meet or surpass 30 for `C[C@H]1CN(C[C@H](Cc2ccccc2)C(=O)[O-])CC[C@@]1(C)c1cccc(C(N)=O)c1.[Na+]` ?
Response given: NO
